system.tested: NEP enzyme (Homo sapiens)
Construct: purchased R&D Systems, Minneapolis, Minn; 1182-ZN
Sequence (P08473 52-750 limits assumed): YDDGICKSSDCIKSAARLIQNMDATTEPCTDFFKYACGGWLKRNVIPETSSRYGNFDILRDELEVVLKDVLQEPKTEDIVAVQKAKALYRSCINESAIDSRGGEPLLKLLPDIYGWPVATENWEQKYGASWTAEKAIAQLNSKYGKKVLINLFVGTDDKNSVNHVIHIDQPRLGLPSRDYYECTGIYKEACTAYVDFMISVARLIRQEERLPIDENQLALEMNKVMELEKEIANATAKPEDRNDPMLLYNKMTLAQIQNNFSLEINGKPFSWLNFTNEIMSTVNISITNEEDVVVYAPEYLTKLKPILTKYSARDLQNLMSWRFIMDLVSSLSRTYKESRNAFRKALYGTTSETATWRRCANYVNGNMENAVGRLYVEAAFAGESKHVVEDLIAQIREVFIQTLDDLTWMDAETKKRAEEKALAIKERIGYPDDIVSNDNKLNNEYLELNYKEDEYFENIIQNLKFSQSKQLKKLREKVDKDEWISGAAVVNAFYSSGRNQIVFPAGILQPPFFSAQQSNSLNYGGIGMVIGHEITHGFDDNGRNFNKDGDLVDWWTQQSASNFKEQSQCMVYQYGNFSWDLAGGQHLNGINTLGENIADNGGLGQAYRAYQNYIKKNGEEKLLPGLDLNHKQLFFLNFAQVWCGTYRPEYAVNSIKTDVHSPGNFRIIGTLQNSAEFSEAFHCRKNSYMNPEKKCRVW
test.name: NEP enzyme inhibition assay (fluorogenic peptide substrate)
Assay type: biochemical
settings: values given as lower bounds; * = prodrugs, may not exhibit NEP activity in an in vitro assay; read-out: NEP pIC50 (converted)
Description: B. In Vitro Assays for the Quantitation of Inhibitor Potencies (IC50) at Human and Rat NEP, and Human ACE The inhibitory activities of compounds at human and rat NEP and human ACE were determined using in vitro assays as described below. […] Plates were read on a fluorometer with excitation and emission wavelengths set to 320 nm and 405 nm, respectively. […]
parameter.measured: IC50

Examples with their reported IC50 follow.
# smiles.str, system.tested, IC50
records = [
    ("CCCc1cc(C(=O)N[C@@H](CC(=O)O)Cc2ccccc2C(F)(F)F)nn1Cc1ccc(-c2ccccc2-c2nnn[nH]2)cc1F", "NEP enzyme (Homo sapiens)", "≤ 1000 nM"),
    ("CCCc1cc(C(=O)N[C@@H](CC(C)C)CN(O)C=O)nn1Cc1ccc(-c2ccccc2S(=O)(=O)NC(C)=O)cc1", "NEP enzyme (Homo sapiens)", "≤ 100 nM"),
    ("CCCc1cc(C(=O)N[C@H](Cc2ccccc2)[C@@H](O)C(=O)O)nn1Cc1ccc(-c2ccccc2S(=O)(=O)NC(=O)CCOC)cc1", "NEP enzyme (Homo sapiens)", "≤ 100 nM"),
]

Quick one: IC50 of CCCc1cc(C(=O)N[C@@H](CS)Cc2ccccc2)nn1Cc1ccc(-c2ccccc2C(=O)O)cc1F ?
≤ 100 nM
